Molecular target: Follistatin (Homo sapiens)
Assay: follistatin binders on small-molecule microarrays, primary screen, biochemical, small-molecule microarray, 635/667 nm fluorescence (AID 1132)
Details: FST binding, 635 nm fluorescence, higher = more signal
List of composite z-score values.
measured.parameter: composite z-score

| molecule | experimental.result |
| --- | --- |
| C=CCOC(=O)[C@H]1[C@@H]2C(=O)O[C@@H](c3ccccc3)[C@@H](c3ccccc3)N2[C@@H](c2ccc(OCCOC(=O)[C@H]3C[C@H]4C(=O)N[C@@H](CC(C)C)C(=O)N4[C@H]3c3ccc(O)cc3)cc2)[C@]12C(=O)Nc1ccc(I)cc12 | 1.19 |
| O=C1C2C=CC(C(O)c3ccc(F)cc3)N(Nc3ccccc3F)C2C(=O)N1c1ccccc1 (stereo not drawn) | 1 |
| [N-]=[N+]=NCc1ccccc1[C@@H]1OC(c2ccc(OCCCO)cc2)=N[C@]1(CCS(=O)(=O)c1ccccc1)C(=O)NCc1ccccc1 | 1.47 |
| CN(C)CCCNC(=O)[C@@]1(c2ccc([N+](=O)[O-])cc2)CC(=O)N(C2CCCCC2)[C@@H]1c1ccc(CO)cc1 | 0.928 |
| CC(CO)N1C(=O)[C@@H]2C3C(=O)OCCC/C=C\[C@H]3OC23C=CCN(c2ccc4ccccc4c2)C(=O)[C@@H]13 (stereo partly drawn) | -0.382 |
| C=CCN1C(=O)[C@@]2(O[C@@H](CCO)[C@H]([Si](C)(C)c3ccc(OC)cc3)[C@H]2C)c2cc(NC(=O)c3ccc(OC)cc3)ccc21 | 1.38 |
| COC(=O)[C@@]1(Cc2ccccc2)[C@H]2c3cc(C(=O)N(C)C)n(CCSCCO)c3C[C@H]2CN1C(=O)c1ccccc1 | -0.347 |
| O=C(O)[C@@]1(CCS(=O)(=O)c2ccccc2)COC(c2ccc(OCCCO)cc2)=N1 | 0.0153 |
| COCCOC(=O)N1C(=O)[C@@]2(c3cc(C#CCNC(N)=O)ccc31)[C@H](C(=O)NC[C@H](O)c1ccccc1)[C@H]1C(=O)O[C@H](c3ccccc3)[C@H](c3ccccc3)N1[C@@H]2c1ccccc1OCCO | 1.07 |
| COCCOC(=O)N1C(=O)[C@@]2(c3cc(C#CC4(O)CCCCCC4)ccc31)[C@H](c1ccc(O)cc1)N1[C@H](c3ccccc3)[C@H](c3ccccc3)OC(=O)[C@H]1[C@@H]2C(=O)Nc1nc2ccccc2s1 | 1.18 |
| CC(C)N1C(=O)c2ccccc2[C@](C)(C(=O)NCc2ccccc2)[C@@H]1c1ccc(CO)cc1 | -0.24 |
| COC(=O)[C@@]1(Cc2ccc(F)cc2)[C@H]2c3cc(C(=O)N4CCCC4)n(Cc4cc(C)n(C)n4)c3C[C@H]2CN1C(=O)c1ccccc1 | 0.392 |
| [N-]=[N+]=NCc1ccccc1[C@@H]1OC(c2ccc(OCCCO)cc2)=N[C@]1(CCS(=O)(=O)c1ccccc1)C(=O)NCCN1CCOCC1 | 1.43 |

---

System: glycogen synthase kinase-3 (GSK3A per assay name; protocol says GSK3B)
Experiment: GSK3 binders on small-molecule microarrays, primary screen, biochemical, small-molecule microarray, 635 nm fluorescence, GSK3A (AID 1103); also: the record names both GSK3A and GSK3B
Conditions: small-molecule microarray binding, fluorescence 635 nm; higher = more signal
measured.parameter: composite z-score

| compound | experimental.result |
| --- | --- |
| C=CCNC(=O)[C@@H]1[C@H]2C(=O)O[C@H](c3ccccc3)[C@H](c3ccccc3)N2[C@H](c2ccccc2OCCO)[C@@]12C(=O)N(C(=O)OCCOC)c1ccc(C#CCNC(N)=O)cc12 | 0.581 |
| CCCC[C@@H]1C[C@H]1[C@@H](NC(=O)c1ccco1)c1ccc(C(=O)OC)cc1 | -1.09 |
| COc1ccc(C(=O)Nc2cccc(CN3C(=O)[C@]4(O[C@H](CCO)[C@@H]([Si](C)(C)c5ccc(OC)cc5)[C@@H]4C)c4ccccc43)c2)cc1 | 0.901 |
| CC(=O)NCCCC[C@@H]1NC(=O)[C@@H]2C[C@H](C(=O)NCCCCN(C)C)[C@H](c3cccc(OCCO)c3)N2C1=O | 0.117 |
| O=C(NCc1ccccc1)[C@@]1(Cc2ccccc2)N=C(c2ccc(OCCCO)cc2)O[C@H]1c1ccccc1 | 0.3 |
| C=CCC(OC(C)=O)[C@@H]1[C@@H](N(Cc2ccc(-c3cccc(C(F)(F)F)c3)o2)C(=O)c2ccc(-c3ccccc3)cc2)c2cc(OCCCO)ccc2N1C(=O)c1ccc(-c2ccccc2)cc1 (stereo partly specified) | -0.754 |
